settings: in isopropanol, 303.2 K
RECORDED ENDPOINT: solubility (mole fraction)
# print the numeric value only

Sure, the documented solubility (mole fraction) for CN1c2ccccc2C(=O)N2CCc3c([nH]c4ccccc34)[C@H]21 is 0.000119

---

conditions: in cyclohexane, 313.2 K
RECORDED ENDPOINT: solubility (mole fraction)
# print the numeric value only

Sure, the documented solubility (mole fraction) for CN1c2ccccc2C(=O)N2CCc3c([nH]c4ccccc34)[C@H]21 is 6.47e-06

---

settings: in methanol, 323.2 K
RECORDED ENDPOINT: solubility (mole fraction)
# print the numeric value only

Sure, the documented solubility (mole fraction) for CN1c2ccccc2C(=O)N2CCc3c([nH]c4ccccc34)[C@H]21 is 0.000176

---

details: in dichloromethane, 303.2 K
RECORDED ENDPOINT: solubility (mole fraction)
# print the numeric value only

Sure, the documented solubility (mole fraction) for CN1c2ccccc2C(=O)N2CCc3c([nH]c4ccccc34)[C@H]21 is 0.000571

---

conditions: in methanol, 303.2 K
RECORDED ENDPOINT: solubility (mole fraction)
# print the numeric value only

Sure, the documented solubility (mole fraction) for CN1c2ccccc2C(=O)N2CCc3c([nH]c4ccccc34)[C@H]21 is 7.24e-05
